Entry source: ChEMBL document CHEMBL3875147

# Tested on: Staphylococcus epidermidis
# experiment: Antibacterial activity against Staphylococcus epidermidis ATCC 35984 incubated for 18 to 24 hrs by micro-dilution method
# Format: functional
# measurement_conditions: RP62A
endpoint_label: MIC (µM)
Quick note: give the figure in µM, leave out the unit.

Answered examples (3):
Fill in: Staphylococcus epidermidis MIC for O=C(OCc1cn(-c2ccccc2Cl)nn1)c1cn(C2CC2)c2cc(N3CCN(Cc4cn(-c5ccccc5Cl)nn4)CC3)c(F)cc2c1=O = 1.09

Summary: O=C(O)c1cn(C2CC2)c2cc(N3CCNCC3)c(F)cc2c1=O [CIPROFLOXACIN] , Staphylococcus epidermidis, MIC = 9.43

Entry CCCCCc1ccc(-n2cc(COC(=O)c3cn(C4CC4)c4cc(N5CCN(Cc6cn(-c7ccc(CCCCC)cc7)nn6)CC5)c(F)cc4c3=O)nn2)cc1 ; assay system Staphylococcus epidermidis; MIC recorded at 127

More entries:
Simply: O=C(OCc1cn(-c2ccc(OC(F)(F)F)cc2)nn1)c1cn(C2CC2)c2cc(N3CCN(Cc4cn(-c5ccc(OC(F)(F)F)cc5)nn4)CC3)c(F)cc2c1=O , Staphylococcus epidermidis, MIC = 1.92

Item O=C(OCc1cn(-c2ccc(Br)cc2)nn1)c1cn(C2CC2)c2cc(N3CCN(Cc4cn(-c5ccc(Br)cc5)nn4)CC3)c(F)cc2c1=O ; assay system Staphylococcus epidermidis; MIC reported as 3.89

Summary line: COc1ccccc1-n1cc(COC(=O)c2cn(C3CC3)c3cc(N4CCN(Cc5cn(-c6ccccc6OC)nn5)CC4)c(F)cc3c2=O)nn1 , Staphylococcus epidermidis, reported MIC = 35.4

Item O=C(OCc1cn(-c2ccc(F)cc2F)nn1)c1cn(C2CC2)c2cc(N3CCN(Cc4cn(-c5ccc(F)cc5F)nn4)CC3)c(F)cc2c1=O ; assay system Staphylococcus epidermidis; MIC reported as 8.71

With Staphylococcus epidermidis as the test system, O=C(OCc1cn(-c2ccc([N+](=O)[O-])cc2)nn1)c1cn(C2CC2)c2cc(N3CCN(Cc4cn(-c5ccc([N+](=O)[O-])cc5)nn4)CC3)c(F)cc2c1=O showed MIC of 1.06

Bench note, Staphylococcus epidermidis: O=C(OCc1cn(-c2ccc(Cl)cc2)nn1)c1cn(C2CC2)c2cc(N3CCN(Cc4cn(-c5ccc(Cl)cc5)nn4)CC3)c(F)cc2c1=O , MIC reads 35

Record O=C(OCc1cn(-c2ccc(Cl)cc2Cl)nn1)c1cn(C2CC2)c2cc(N3CCN(Cc4cn(-c5ccc(Cl)cc5Cl)nn4)CC3)c(F)cc2c1=O ; system Staphylococcus epidermidis; MIC = 3.99

====

# System: Escherichia coli
# experiment: Antibacterial activity against Escherichia coli ATCC 25922 incubated for 18 to 24 hrs by micro-dilution method
# Type: functional
endpoint_label: MIC (µM)
Give the value, in units of µM, as a plain number.

Examples with answers:
# value of MIC, Escherichia coli, item O=C(OCc1cn(-c2ccc([N+](=O)[O-])cc2)nn1)c1cn(C2CC2)c2cc(N3CCN(Cc4cn(-c5ccc([N+](=O)[O-])cc5)nn4)CC3)c(F)cc2c1=O = 4.25

Entry COc1ccccc1-n1cc(COC(=O)c2cn(C3CC3)c3cc(N4CCN(Cc5cn(-c6ccccc6OC)nn5)CC4)c(F)cc3c2=O)nn1 : MIC on Escherichia coli = 8.86

The recorded MIC with Escherichia coli for O=C(OCc1cn(-c2ccccc2Cl)nn1)c1cn(C2CC2)c2cc(N3CCN(Cc4cn(-c5ccccc5Cl)nn4)CC3)c(F)cc2c1=O was 2.19

Then there is this compound:
O=C(OCc1cn(-c2ccc(OC(F)(F)F)cc2)nn1)c1cn(C2CC2)c2cc(N3CCN(Cc4cn(-c5ccc(OC(F)(F)F)cc5)nn4)CC3)c(F)cc2c1=O tested on Escherichia coli gave MIC: 3.84
